Tested on: Enterovirus C
Test: Antiviral activity against Enterovirus C Sabin […] infected in African green monkey Vero 76 cells assessed as protection against virus-induced cytopathic effect after 2 days by crystal violet staining-based plaque reduction assay
Assay type: functional, organism-based
Conditions: Vero 76, 48 h
pEC50: −log10 of the molar value.
# reported pEC50; entries follow

Compound: NS(=O)(=O)c1ccc(N2N=C(c3ccc(Oc4ccccc4)cc3)CC2c2cccc(Cl)c2)cc1 (centres undefined)
pEC50: < 4.06

Compound: Cc1ccc(C2CC(c3ccc(OCc4ccccc4)cc3)=NN2c2ccc(S(N)(=O)=O)cc2)cc1 (centres undefined)
pEC50: < 4.00

Compound: NS(=O)(=O)c1ccc(N2N=C(c3ccccc3)CC2c2ccccc2)cc1 (centres undefined)
pEC50: < 4.66

Compound: NS(=O)(=O)c1ccc(N2N=C(c3ccc(OCc4ccccc4)cc3)CC2c2ccccc2Cl)cc1 (centres undefined)
pEC50: < 4.04

Compound: NS(=O)(=O)c1ccc(N2N=C(c3ccc(OCc4ccccc4)cc3)CC2c2ccccc2F)cc1 (centres undefined)
pEC50: < 4.00

Compound: Cc1ccccc1C1CC(c2ccc(OCc3ccccc3)cc2)=NN1c1ccc(S(N)(=O)=O)cc1 (centres undefined)
pEC50: < 4.00

Compound: NS(=O)(=O)c1ccc(N2N=C(c3ccccc3)CC2c2ccccc2Cl)cc1 (centres undefined)
pEC50: < 4.59

Compound: NS(=O)(=O)c1ccc(N2N=C(c3ccc(OCc4ccccc4)cc3)CC2c2cccc(Cl)c2)cc1 (centres undefined)
pEC50: < 4.07

Compound: Cc1cccc(C2CC(c3ccc(Oc4ccccc4)cc3)=NN2c2ccc(S(N)(=O)=O)cc2)c1 (centres undefined)
pEC50: < 4.09

Compound: NS(=O)(=O)c1ccc(N2N=C(c3ccc(Oc4ccccc4)cc3)CC2c2ccccc2Cl)cc1 (centres undefined)
pEC50: < 4.54

Compound: Cc1ccc(C2CC(c3ccc(Oc4ccccc4)cc3)=NN2c2ccc(S(N)(=O)=O)cc2)cc1 (centres undefined)
pEC50: < 4.07

Compound: NS(=O)(=O)c1ccc(N2N=C(c3ccccc3)CC2c2ccc(Cl)cc2)cc1 (centres undefined)
pEC50: < 4.68

Compound: NS(=O)(=O)c1ccc(N2N=C(c3ccccc3)CC2c2ccc(F)cc2)cc1 (centres undefined)
pEC50: < 4.64

Compound: NS(=O)(=O)c1ccc(N2N=C(c3ccc(OCc4ccccc4)cc3)CC2c2ccccc2)cc1 (centres undefined)
pEC50: < 4.00

Compound: NS(=O)(=O)c1ccc(N2N=C(c3ccccc3)CC2c2ccccc2F)cc1 (centres undefined)
pEC50: < 4.55

Compound: Cc1cccc(C2CC(c3ccc(OCc4ccccc4)cc3)=NN2c2ccc(S(N)(=O)=O)cc2)c1 (centres undefined)
pEC50: < 4.00

Compound: NS(=O)(=O)c1ccc(N2N=C(c3ccccc3)CC2c2cccc(Cl)c2)cc1 (centres undefined)
pEC50: < 4.68

Compound: NS(=O)(=O)c1ccc(N2N=C(c3ccc(OCc4ccccc4)cc3)CC2c2ccc(F)cc2)cc1 (centres undefined)
pEC50: < 4.05

Compound: Cc1cc(CCCOc2c(C)cc(-c3noc(C(F)(F)F)n3)cc2C)on1
pEC50: 5.57

====

Assay: Cytotoxicity against human MT4 cells assessed as decrease in cell viability after 96 hrs by MTT assay
Type: cell-based
# note: boundary value 40 µM maps to Not fulfilled; CC50 at 96 h below it maps to Fulfilled

Compound: NS(=O)(=O)c1ccc(N2N=C(c3ccc(OCc4ccccc4)cc3)CC2c2ccc(F)cc2)cc1 (centres undefined)
Answer Label: Not fulfilled
//
Compound: NS(=O)(=O)c1ccc(N2N=C(c3ccccc3)CC2c2ccc(F)cc2)cc1 (centres undefined)
Answer Label: Not fulfilled
//
Compound: Cc1ccccc1C1CC(c2ccc(OCc3ccccc3)cc2)=NN1c1ccc(S(N)(=O)=O)cc1 (centres undefined)
Answer Label: Not fulfilled
//
Compound: NS(=O)(=O)c1ccc(N2N=C(c3ccc(Oc4ccccc4)cc3)CC2c2ccccc2F)cc1 (centres undefined)
Answer Label: Fulfilled
//
Compound: Cc1ccc(C2CC(c3ccc(OCc4ccccc4)cc3)=NN2c2ccc(S(N)(=O)=O)cc2)cc1 (centres undefined)
Answer Label: Fulfilled
//
Compound: NS(=O)(=O)c1ccc(N2N=C(c3ccc(OCc4ccccc4)cc3)CC2c2cccc(Cl)c2)cc1 (centres undefined)
Answer Label: Fulfilled
//
Compound: NS(=O)(=O)c1ccc(N2N=C(c3ccc(OCc4ccccc4)cc3)CC2c2ccccc2Cl)cc1 (centres undefined)
Answer Label: Fulfilled
//
Compound: NS(=O)(=O)c1ccc(N2N=C(c3ccc(OCc4ccccc4)cc3)CC2c2cccc(F)c2)cc1 (centres undefined)
Answer Label: Not fulfilled
//
Compound: NS(=O)(=O)c1ccc(N2N=C(c3ccc(Oc4ccccc4)cc3)CC2c2cccc(Cl)c2)cc1 (centres undefined)
Answer Label: Fulfilled
//
Compound: NS(=O)(=O)c1ccc(N2N=C(c3ccccc3)CC2c2ccccc2)cc1 (centres undefined)
Answer Label: Not fulfilled
//
Compound: NS(=O)(=O)c1ccc(N2N=C(c3ccc(Oc4ccccc4)cc3)CC2c2ccc(F)cc2)cc1 (centres undefined)
Answer Label: Fulfilled
//
Compound: Cc1ccccc1C1CC(c2ccc(Oc3ccccc3)cc2)=NN1c1ccc(S(N)(=O)=O)cc1 (centres undefined)
Answer Label: Fulfilled
//
Compound: NS(=O)(=O)c1ccc(N2N=C(c3ccccc3)CC2c2cccc(F)c2)cc1 (centres undefined)
Answer Label: Not fulfilled
//
Compound: Cc1ccc(C2CC(c3ccc(Oc4ccccc4)cc3)=NN2c2ccc(S(N)(=O)=O)cc2)cc1 (centres undefined)
Answer Label: Fulfilled
//
Compound: NS(=O)(=O)c1ccc(N2N=C(c3ccccc3)CC2c2ccc(Cl)cc2)cc1 (centres undefined)
Answer Label: Fulfilled
//
Compound: NS(=O)(=O)c1ccc(N2N=C(c3ccccc3)CC2c2ccccc2Cl)cc1 (centres undefined)
Answer Label: Not fulfilled
//
Compound: NS(=O)(=O)c1ccc(N2N=C(c3ccc(Oc4ccccc4)cc3)CC2c2cccc(F)c2)cc1 (centres undefined)
Answer Label: Fulfilled

====

# reported EC50; entries follow
System: Enterovirus C
Assay: Antiviral activity against Enterovirus C Sabin […] infected in African green monkey Vero 76 cells assessed as protection against virus-induced cytopathic effect after 2 days by crystal violet staining-based plaque reduction assay
Assay type: functional, organism-based
Conditions: Vero 76, 48 h

Compound: NS(=O)(=O)c1ccc(N2N=C(c3ccc(OCc4ccccc4)cc3)CC2c2ccc(Cl)cc2)cc1 (centres undefined)
Target Entity: Enterovirus C
EC50: > 82 µM
--
Compound: NS(=O)(=O)c1ccc(N2N=C(c3ccc(Oc4ccccc4)cc3)CC2c2ccc(Cl)cc2)cc1 (centres undefined)
Target Entity: Enterovirus C
EC50: > 88 µM
--
Compound: NS(=O)(=O)c1ccc(N2N=C(c3ccc(OCc4ccccc4)cc3)CC2c2cccc(F)c2)cc1 (centres undefined)
Target Entity: Enterovirus C
EC50: > 90 µM
--
Compound: NS(=O)(=O)c1ccc(N2N=C(c3ccc(Oc4ccccc4)cc3)CC2c2ccc(F)cc2)cc1 (centres undefined)
Target Entity: Enterovirus C
EC50: > 25 µM
--
Compound: NS(=O)(=O)c1ccc(N2N=C(c3ccc(Oc4ccccc4)cc3)CC2c2cccc(F)c2)cc1 (centres undefined)
Target Entity: Enterovirus C
EC50: > 28 µM
--
Compound: Cc1cccc(C2CC(c3ccccc3)=NN2c2ccc(S(N)(=O)=O)cc2)c1 (centres undefined)
Target Entity: Enterovirus C
EC50: > 25 µM
--
Compound: Cc1ccc(C2CC(c3ccccc3)=NN2c2ccc(S(N)(=O)=O)cc2)cc1 (centres undefined)
Target Entity: Enterovirus C
EC50: > 20 µM
--
Compound: NS(=O)(=O)c1ccc(N2N=C(c3ccc(Oc4ccccc4)cc3)CC2c2ccccc2)cc1 (centres undefined)
Target Entity: Enterovirus C
EC50: > 85 µM
--
Compound: Cc1ccccc1C1CC(c2ccc(Oc3ccccc3)cc2)=NN1c1ccc(S(N)(=O)=O)cc1 (centres undefined)
Target Entity: Enterovirus C
EC50: > 90 µM

====

Test: Selectivity index, ratio of CC50 for golden hamster BHK21 cells to EC50 for Yellow fever virus 17D
Type: toxicity
Conditions: read-out: Ratio CC50/EC50
# note: boundary value 6 maps to Not satisfied; selectivity ratio below it maps to Satisfied

Molecule: Cc1ccccc1C1CC(c2ccc(Oc3ccccc3)cc2)=NN1c1ccc(S(N)(=O)=O)cc1 (centres undefined)
Answer Label: Satisfied
//
Molecule: NS(=O)(=O)c1ccc(N2N=C(c3ccc(Oc4ccccc4)cc3)CC2c2ccccc2)cc1 (centres undefined)
Answer Label: Not satisfied
//
Molecule: Cc1cccc(C2CC(c3ccc(OCc4ccccc4)cc3)=NN2c2ccc(S(N)(=O)=O)cc2)c1 (centres undefined)
Answer Label: Satisfied
//
Molecule: NS(=O)(=O)c1ccc(N2N=C(c3ccc(OCc4ccccc4)cc3)CC2c2ccc(F)cc2)cc1 (centres undefined)
Answer Label: Not satisfied
//
Molecule: NS(=O)(=O)c1ccc(N2N=C(c3ccc(Oc4ccccc4)cc3)CC2c2ccc(F)cc2)cc1 (centres undefined)
Answer Label: Satisfied
//
Molecule: Cc1ccccc1C1CC(c2ccc(OCc3ccccc3)cc2)=NN1c1ccc(S(N)(=O)=O)cc1 (centres undefined)
Answer Label: Not satisfied
//
Molecule: NS(=O)(=O)c1ccc(N2N=C(c3ccc(OCc4ccccc4)cc3)CC2c2ccc(Cl)cc2)cc1 (centres undefined)
Answer Label: Not satisfied
//
Molecule: NS(=O)(=O)c1ccc(N2N=C(c3ccc(OCc4ccccc4)cc3)CC2c2ccccc2Cl)cc1 (centres undefined)
Answer Label: Not satisfied
